- Test system: HepG2 Srxn1-GFP reporter cells (+30 nM CDDO-Me)
- assay_overview: Srxn1-GFP intensity median modified Z-score relative to plate median; higher = stronger NRF2 / oxidative stress reporter activation, active = hit call of the paper
- settings: 10 µM; exposure time: 24h
About 330 (14%) of roughly 2,300 compounds showed activity. These entries were drawn from the full list.
Kind request: treat -0.1 as inclusive, so Srxn1-GFP intensity median modified Z-score at -0.1 or higher is Yes, anything lower is No.

| molecule | assigned_class |
| --- | --- |
| CC1(C)NC(=O)N(c2ccc([N+](=O)[O-])c(C(F)(F)F)c2)C1=O [euspeclibcmpd654] | Yes |
| Cc1ccc(-n2c(C)cc(C(=O)COC(=O)C3CC4C=CC3C4)c2C)cc1C (stereo unspecified) | Yes |
| COC(=O)C[C@H]1C2(C)CC34OC5(C)O[C@@]6([C@H](OC(C)=O)C(OC(C)=O)[C@]7(C)C(C(C(=O)C(C)C)C(=O)O[C@H]7c7ccoc7)[C@@]6(O5)[C@H](OC(C)=O)[C@@]3(O)C2OC(=O)C(C)C)[C@]14C (stereo partly specified) [euspeclibcmpd1593] | Yes |
| Cc1c(C)c2c(c(C)c1O)CCC(C)(C(=O)O)O2 (stereo unspecified) [euspeclibcmpd1989] | No |
| Cc1c(NC(=O)CCc2cccnc2)c(=O)n(-c2ccccc2)n1C | Yes |
| COc1ccc(C(=O)CC(=O)O)c2c1C=CC(C)(C)O2 [euspeclibcmpd1976] | No |
| NC(=O)CCC(NC(=O)C(N)CO)C(=O)O (stereo unspecified) [euspeclibcmpd2427] | No |
| O=C(O)c1cc(O)c(=O)c2c(O)c(O)c(O)cc2c1 [euspeclibcmpd1713] | No |
| CC(C)CCCC(C)[C@H]1CCC2C3CC=C4CC(=O)CC[C@]4(C)C3CC[C@@]21C (stereo partly specified) [euspeclibcmpd1330] | No |
| CN(N=O)C(=O)N[C@@H]1[C@@H](O)[C@H](O)[C@@H](CO)O[C@@H]1O [euspeclibcmpd271] | Yes |
| CC(C)(ON=C(C(=O)NC1C(=O)N2C(C(=O)O)=C(C[n+]3ccccc3)CSC12)c1csc(=N)[nH]1)C(=O)O (stereo unspecified) [euspeclibcmpd603] | No |
| CC(C)CCCC(C)C1CCC2C3=CCC4CC(O)CCC4(C)C3CCC21C (stereo unspecified) [euspeclibcmpd1991] | No |
| C[C@]12CCC3c4ccc(OC(=O)c5ccccc5)cc4CCC3C1CCC2=O (stereo partly specified) [euspeclibcmpd2153] | No |
| C[C@]12C=CC(=O)CC1=CCC1C2[C@@H](O)C[C@@]2(C)C1CC[C@]2(O)C(=O)COP(=O)(O)O (stereo partly specified) [euspeclibcmpd2287] | Yes |
| COc1cc(OC)c2c(=O)c(-c3ccc4c(c3)OCO4)coc2c1 [euspeclibcmpd1964] | Yes |

---

- Tested on: HepG2 Srxn1-GFP reporter cells (+30 nM CDDO-Me)
- assay_overview: Srxn1-GFP intensity median modified Z-score relative to plate median; higher = stronger NRF2 / oxidative stress reporter activation, active = hit call of the paper
- settings: 10 µM; exposure time: 24h
The whole screen tested about 2,300 compounds, of which about 330 (14%) showed activity. Not all results are given here.
experimental_readout: Srxn1-GFP intensity median modified Z-score

| molecule | measured |
| --- | --- |
| C[C@H]1O[C@H](O[C@H]2[C@H](O)[C@@H](O)[C@@H](O[C@H]3[C@H](O)[C@@H](O)C(O)O[C@@H]3CO)O[C@@H]2CO)[C@H](O)[C@@H](O)[C@@H]1N[C@H]1C=C(CO)[C@@H](O)[C@H](O)[C@H]1O (stereo partly specified) [euspeclibcmpd430] | -0.321 |
| COc1[nH]c(=N)nc2c1ncn2C1OC(CO)C(O)C1O (stereo unspecified) [euspeclibcmpd1835] | -0.349 |
| C[C@H](CCC(=O)O)[C@H]1CCC2C3C(CC[C@@]21C)[C@@]1(C)CC[C@@H](O)C[C@H]1C[C@H]3O (stereo partly specified) [euspeclibcmpd2399] | -0.395 |
| O=c1[nH]cnc2c1ncn2C1O[C@H](CO)[C@@H](O)[C@H]1O (stereo partly specified) [euspeclibcmpd1256] | -0.544 |
| OC[C@H]1O[C@H](OC[C@H]2O[C@@H](O)[C@H](O)[C@@H](O)[C@@H]2O)[C@H](O)[C@@H](O)[C@H]1O [euspeclibcmpd1651] | -0.055 |
| Cn1nnnc1SC=C1CSC2C(NC(=O)C(OC=O)c3ccccc3)C(=O)N2C1C(=O)O (stereo unspecified) [euspeclibcmpd2340] | 0.482 |
